target: T1, human cannabinoid receptor type 1 (CB1) (human, UniProt P21554 1-472); assay: flow cytometry, single point at 30 ug/mL antibody, signal on CHO-huCB-1 cells relative to CHO parental cells
T1 construct: DiscoverX cAMP Hunter CHO-K1 CNR1 Gi cells for cAMP and pERK assays; also called huCB1; huCB-1
T1 sequence (P21554 whole entry): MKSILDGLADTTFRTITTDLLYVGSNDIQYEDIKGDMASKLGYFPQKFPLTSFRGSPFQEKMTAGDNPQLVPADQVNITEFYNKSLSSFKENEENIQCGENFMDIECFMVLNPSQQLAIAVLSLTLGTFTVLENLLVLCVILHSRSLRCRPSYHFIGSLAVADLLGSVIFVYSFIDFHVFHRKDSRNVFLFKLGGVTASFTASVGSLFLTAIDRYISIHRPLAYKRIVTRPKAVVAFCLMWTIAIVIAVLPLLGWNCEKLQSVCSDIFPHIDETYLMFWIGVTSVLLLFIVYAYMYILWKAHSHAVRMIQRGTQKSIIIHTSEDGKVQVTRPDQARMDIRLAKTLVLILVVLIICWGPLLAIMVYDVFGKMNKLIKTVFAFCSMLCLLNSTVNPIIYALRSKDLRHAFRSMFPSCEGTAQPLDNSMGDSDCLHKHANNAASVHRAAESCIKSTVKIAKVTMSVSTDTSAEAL
measurement type: binding result

- M7-H9 humanized anti-CB1 antibody (antibody, human IgG1, kappa, L234A L235A, V domains shown) VH: QVQLVQSGAEVKKPGASVKVSCKASSYTFTRYWMNWVRQAPGQGLEWMGMIDPYDSETHYNQKFQGRVTMTRDTSTSTVYMELSSLRSEDTAVYYCARSQPRYYAMDYWGQGTTVTVSS VL: DIQMTQSPSSLSASLGDRVTLTCRASQEISGFLSWLQLKPGKTIKRLIYAASSLDSGVPSRFSGSWSGTDYTLTISSLQPEDFADYYCLQYSSYPYTFGGGTKLEIKR: binds
